Quick list: normalized growth per entry.
- assay-text: chemical genetic growth profiling, strain panel (AID 1159580);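 note: tested at 20 µM; growth read once vehicle control cultures reached saturation at 30 °C; 1 = growth at the plate median or of vehicle wells; lower values mean less growth of the strain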
- test-settings: S. cerevisiae deletion strains, growth OD, locus YMR125W, strain sto1, hits give low values
The campaign covered roughly 5,500 compounds. About 2,000 (36%) were called active. Inconclusive results (about 18%) are left out. The list shows a part of the results.
Reply briefly: the number, and no unit.

[[record]]
compound = "CCc1ccc2c(O)c3c(cc2c1C(=O)OC)C(=O)c1c(O)ccc(O)c1C3=O"
recorded_measurement = 1.01

[[record]]
compound = "Nc1nc(/C(=C/CC(=O)O)C(=O)N[C@@H]2C(=O)N3C(C(=O)O)=CCS[C@H]23)cs1"
recorded_measurement = 1.01


Entry under test: C[C@H]1O[C@H](O[C@H]2[C@H](O)[C@@H](O)[C@@H](O[C@H]3[C@H](O)[C@@H](O)C(O)O[C@@H]3CO)O[C@@H]2CO)[C@H](O)[C@@H](O)[C@@H]1N[C@H]1C=C(CO)[C@@H](O)[C@H](O)[C@H]1O (stereo not given in full) . Its normalized growth was 0.996

Memo: C[N+]1(C)C[C@H](O)[C@H](C(=O)[O-])C1 , reported normalized growth: 1.02

Given item C/C=C/CC(C)C(O)C1C(=O)NC(CC)C(=O)N(C)CC(=O)N(C)C(CC(C)C)C(=O)NC(C(C)C)C(=O)N(C)C(CC(C)C)C(=O)NC(C)C(=O)NC(C)C(=O)N(C)C(CC(C)C)C(=O)N(C)C(CC(C)C)C(=O)N(C)C(C(C)C)C(=O)N1C (stereo not given) , the value recorded as its normalized growth is 0.915

compound CN(C)C(=O)C(CCN1CCC(O)(c2ccc(Cl)cc2)CC1)(c1ccccc1)c1ccccc1 , normalized growth observed: 1.02

normalized growth measured on O=C(CCCN1CCC2(CC1)C(=O)NCN2c1ccccc1)c1ccc(F)cc1 = 1

Just so you know, measured normalized growth for COc1ccc(-c2cc(=O)c3c(O)cc(O)c(-c4cc(-c5cc(=O)c6c(O)cc(O)cc6o5)ccc4OC)c3o2)cc1 came out at 1.02

The reported value for CC(C)(C)NCC(O)COc1cccc2c1C[C@H](O)[C@H](O)C2 (stereo not given in full) in terms of normalized growth is 1.01

Looking up CO[C@@H]1[C@@H](OC(N)=O)[C@@H](O)[C@H](Oc2ccc3c(O)c(NC(=O)c4ccc(O)c(CC=C(C)C)c4)c(=O)oc3c2C)OC1(C)C , I found its normalized growth recorded as 1.02

----------
- assay-text: chemical genetic growth profiling, strain panel (AID 1159580);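 note: tested at 20 µM; growth read once vehicle control cultures reached saturation at 30 °C; 1 = growth at the plate median or of vehicle wells; lower values mean less growth of the strain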
- test-settings: S. cerevisiae deletion strains, growth OD, locus YOR083W, strain WHI5 (second series)
In all, about 5,500 compounds went through this assay and about 2,000 (36%) were called active. Inconclusive results (about 18%) are left out. No stated cut-off is given here; in the data, active means normalized growth mostly below about 0.91 (no sharp cut-off); inconclusive means no clear call, values can overlap the other calls; inactive means mostly above about 0.92. Some of the results follow.
Mark one answer only. Choices: active, inactive

How was CCCN(CC1CC1)c1nc(C)nc(Nc2c(Cl)cc(Cl)cc2Cl)c1Cl classified in this test?
active

// return assay outcome for Nc1nc2c(ncn2COC(CO)CO)c(=O)[nH]1
inactive

Hi team, can someone confirm the assay call for CC(=O)c1ccc(S(=O)(=O)NC(=O)NC2CCCCC2)cc1 ?
inactive

Any idea what this test logged for O=C(NCCNCC(O)COc1ccc(O)cc1)N1CCOCC1 (stereo unspecified) ?
inactive

Record request — test call for COc1cc(C(=O)OCCCN2CCCN(CCCOC(=O)c3cc(OC)c(OC)c(OC)c3)CC2)cc(OC)c1OC
inactive

So what was the verdict on CC(=O)N1CCN(c2ccc(OC[C@H]3CO[C@](Cn4ccnc4)(c4ccc(Cl)cc4Cl)O3)cc2)CC1 in this test?
active

Query: recorded result category for NCCCCN in this test
inactive

Hi, sorry to bother you, what did the test record for O=C(O)CCC(=O)N1CCCC1C(=O)O (stereo unspecified) ?
inactive

Lab log entry: Cc1nc(N=Nc2cc(S(=O)(=O)O)c3cc([N+](=O)[O-])cc(S(=O)(=O)O)c3c2)c(COP(=O)(O)O)c(C=O)c1O — outcome as called in the assay?
inactive

Check the results log: what was the call for CCNC(=O)N1CCN(CCCC(c2ccc(F)cc2)c2ccc(F)cc2)CC1 ?
inactive

Just curious, what result did CCn1nc(C(=O)O)c(=O)c2cc3c(cc21)OCO3 get here?
inactive
